tested.target: T1, Rat Serum Albumin (rat, UniProt P02770 25-608)
T1 construct: mature; purified protein on CM5 chips for BIAcore; also called RSA; rat SA
T1 sequence (P02770 25-608): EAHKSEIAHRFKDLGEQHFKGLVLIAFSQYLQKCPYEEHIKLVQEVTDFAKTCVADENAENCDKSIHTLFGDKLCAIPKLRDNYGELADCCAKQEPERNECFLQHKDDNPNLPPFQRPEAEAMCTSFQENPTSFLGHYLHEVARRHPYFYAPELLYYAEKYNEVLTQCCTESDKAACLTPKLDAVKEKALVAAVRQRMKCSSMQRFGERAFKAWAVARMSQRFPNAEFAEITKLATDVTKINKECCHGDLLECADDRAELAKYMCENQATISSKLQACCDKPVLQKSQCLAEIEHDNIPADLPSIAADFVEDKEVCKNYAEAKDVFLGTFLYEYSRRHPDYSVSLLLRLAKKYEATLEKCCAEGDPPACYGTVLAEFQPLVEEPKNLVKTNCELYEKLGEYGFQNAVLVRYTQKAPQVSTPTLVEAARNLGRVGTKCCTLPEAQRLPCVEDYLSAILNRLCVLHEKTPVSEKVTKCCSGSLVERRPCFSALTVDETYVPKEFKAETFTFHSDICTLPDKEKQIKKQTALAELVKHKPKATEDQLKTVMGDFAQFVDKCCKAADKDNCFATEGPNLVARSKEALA
protocol.text: BIAcore SPR;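 further: purified dAbs run at 1 µM, 500 nM and 50 nM over human, cynomolgus, mouse and rat serum albumin in BIAcore binding measurements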
observed.property: koff (s⁻¹)
Numeric answer only, unit s⁻¹ assumed.

[Q] Suppose we examine the binder DOM7h-14-19 (other, Vk dAb (AlbudAb)) VL: DIQMTQSPSSLSASVGDRVTISCRASQWIGSQLSWYQQKPGEAPKLLIMWRSSLQSGVPSRFSGSGSGTDFTLTISSLQPEDFATYYCAQGAALPRTFGQGTKVEIKR ; what koff value has been reported?
[A] 0.287

[Q] Same thing, different binder: DOM7h-14-10 (other, Vk dAb (AlbudAb)) VL: DIQMTQSPSSLSASVGDRVTITCRASQWIGSQLSWYQQKPGKAPKLLIMWRSSLQSGVPSRFSGSGSGTDFTLTISSLQPEDFATYYCAQGLRHPKTFGQGTKVEIKR
[A] 0.00964

Cited source for all entries: patent US20130129746A1
